- Tested on: myosin ATPase, Rabbit Psoas myofibrils
- ASSAY_NAME: Myofibril ATPase assay, rabbit psoas (skeletal) myofibrils
- Assay type: biochemical
- CONDITION_INFO: concentration required to reduce myosin ATP-ase activity by 25%; Rabbit Psoas Prep pCa 25 GEOM_MEAN
MEASURE_NAME: Rabbit Psoas EC25 (Y75 value) (µM)
Note: unit µM is implicit; provide only the numeric part.

Memo: C[C@H](NC(=O)Cn1c(=O)[nH]c2cc(F)ccc2c1=O)c1ccc(F)cc1F [Compound 143] , reported Rabbit Psoas EC25 (Y75 value): 9.2

Memo: CC(NC(=O)Cn1c(=O)[nH]c2ccccc2c1=O)c1ccccc1Cl (centres unmarked) [Compound 523] , reported Rabbit Psoas EC25 (Y75 value): 16.05

Memo: C[C@H](NC(=O)[C@H](C)n1c(=O)[nH]c2ccccc2c1=O)c1ccc(F)cc1F (single isomer, unassigned) [Compound 102] , reported Rabbit Psoas EC25 (Y75 value): 0.761

Memo: C[C@H](NC(=O)[C@@H](CC1CC1)n1c(=O)[nH]c2ccccc2c1=O)c1ncc(F)cc1F (single isomer, unassigned) [Compound 212] , reported Rabbit Psoas EC25 (Y75 value): 100

Memo: C[C@@H](NC(=O)Cn1c(=O)[nH]c2ccc(F)cc2c1=O)c1cnc(C#N)nc1 (single isomer, unassigned) [Compound 209] , reported Rabbit Psoas EC25 (Y75 value): 39.51

Memo: C[C@@H](NC(=O)Cn1c(=O)[nH]c2ccc(F)c(F)c2c1=O)c1ccc(C#N)cn1 (single isomer, unassigned) [Compound 17] , reported Rabbit Psoas EC25 (Y75 value): 9.016

Memo: C[C@H](NC(=O)Cn1c(=O)[nH]c2c(Cl)cccc2c1=O)c1ccc(F)cc1F [Compound 408] , reported Rabbit Psoas EC25 (Y75 value): 100

Memo: C[C@H](NC(=O)Cn1c(=O)[nH]c2ccc(F)cc2c1=O)c1ccc(F)cc1F [Compound 155] , reported Rabbit Psoas EC25 (Y75 value): 0.073

Memo: CC[C@H](NC(=O)Cn1c(=O)[nH]c2ccccc2c1=O)c1ccc(F)cc1F (single isomer, unassigned) [Compound 49] , reported Rabbit Psoas EC25 (Y75 value): 100

Memo: COc1cc2c(cc1OC)C(NC(=O)Cn1c(=O)[nH]c3ccccc3c1=O)CC2 (centres unmarked) [Compound 703] , reported Rabbit Psoas EC25 (Y75 value): 100

Memo: C[C@H](NC(=O)Cn1c(=O)[nH]c2ccccc2c1=O)c1ccccc1 (single isomer, unassigned) [Compound 534] , reported Rabbit Psoas EC25 (Y75 value): 100

Memo: COc1ccc2c(=O)n(CC(=O)N[C@@H](C)c3ccc(F)cc3F)c(=O)[nH]c2c1 [Compound 142] , reported Rabbit Psoas EC25 (Y75 value): 100

Memo: O=C(Cn1c(=O)[nH]c2ccccc2c1=O)N[C@H]1CCCc2cc(F)cc(F)c21 (single isomer, unassigned) [Compound 55] , reported Rabbit Psoas EC25 (Y75 value): 100

Memo: Cc1c(F)ccc2[nH]c(=O)n(CC(=O)N[C@H]3CCc4cc(C#N)cnc43)c(=O)c12 [Compound 10] , reported Rabbit Psoas EC25 (Y75 value): 100

###

- Tested on: myosin ATPase, Porcine Atria myofibrils
- ASSAY_NAME: Myofibril ATPase assay, porcine atria myofibrils
- Format: biochemical
- CONDITION_INFO: concentration required to reduce myosin ATP-ase activity by 25%; Porcine Atria Prep pCa 25 GEOM_MEAN
Would you kindly list Porcine Atria EC25 (Y75 value) for each of these compounds?
Note: unit µM is implicit; provide only the numeric part.

Assay myosin ATPase, Porcine Atria myofibrils, sample Cc1ccc2[nH]c(=O)n(CC(=O)N[C@H](C)c3ncc(C#N)cc3F)c(=O)c2c1F (single isomer, unassigned) [Compound 3003] , Porcine Atria EC25 (Y75 value) read: 1.32

Assay myosin ATPase, Porcine Atria myofibrils, sample CC(NC(=O)Cn1c(=O)[nH]c2ccccc2c1=O)c1cnn(C)c1 (stereo not drawn) [Compound 603] , Porcine Atria EC25 (Y75 value) read: 100

Assay myosin ATPase, Porcine Atria myofibrils, sample C[C@H](NC(=O)Cn1c(=O)[nH]c2ccc(F)cc2c1=O)c1cnc(C#N)nc1 (single isomer, unassigned) [Compound 210] , Porcine Atria EC25 (Y75 value) read: 0.118

Assay myosin ATPase, Porcine Atria myofibrils, sample C[C@@H](NC(=O)Cn1c(=O)[nH]c2ccccc2c1=O)c1ccc(F)cc1F [Compound 166] , Porcine Atria EC25 (Y75 value) read: 100

Assay myosin ATPase, Porcine Atria myofibrils, sample CC(C)[C@H](N)C(=O)OCn1c(=O)n(CC(=O)N[C@@H](C)c2ccc(F)cc2F)c(=O)c2cc(F)ccc21 [Compound 401] , Porcine Atria EC25 (Y75 value) read: 46.5

Assay myosin ATPase, Porcine Atria myofibrils, sample C[C@H](NC(=O)Cn1c(=O)[nH]c2cccc(C#N)c2c1=O)c1ncc(C#N)cn1 (single isomer, unassigned) [Compound 204] , Porcine Atria EC25 (Y75 value) read: 100

Assay myosin ATPase, Porcine Atria myofibrils, sample CC(c1ccc(F)cc1F)N(C)C(=O)Cn1c(=O)[nH]c2ccccc2c1=O (stereo not drawn) [Compound 521] , Porcine Atria EC25 (Y75 value) read: 100

Assay myosin ATPase, Porcine Atria myofibrils, sample C[C@H](NC(=O)C(C)(C)n1c(=O)[nH]c2ccccc2c1=O)c1ccc(F)cc1F [Compound 42] , Porcine Atria EC25 (Y75 value) read: 100

Assay myosin ATPase, Porcine Atria myofibrils, sample C[C@H](NC(=O)Cn1c(=O)[nH]c2ccnc(O)c2c1=O)c1ccc(F)cc1F [Compound 59] , Porcine Atria EC25 (Y75 value) read: 100

Assay myosin ATPase, Porcine Atria myofibrils, sample C[C@@H](NC(=O)C1(n2c(=O)[nH]c3cccc(C#N)c3c2=O)CC1)c1ncc(C#N)cc1F (single isomer, unassigned) [Compound 3014] , Porcine Atria EC25 (Y75 value) read: 100.00

Assay myosin ATPase, Porcine Atria myofibrils, sample CC(NC(=O)Cn1c(=O)[nH]c2ccccc2c1=O)c1cc(F)ccc1F (stereo not drawn) [Compound 525] , Porcine Atria EC25 (Y75 value) read: 23.51

Assay myosin ATPase, Porcine Atria myofibrils, sample CC(NC(=O)Cn1c(=O)[nH]c2ccccc2c1=O)c1nccs1 (stereo not drawn) [Compound 601] , Porcine Atria EC25 (Y75 value) read: 100

Assay myosin ATPase, Porcine Atria myofibrils, sample Cc1c(F)ccc2[nH]c(=O)n(CC(=O)N[C@H]3COc4cc(C#N)cnc43)c(=O)c12 (single isomer, unassigned) [Compound 702] , Porcine Atria EC25 (Y75 value) read: 3.03

Assay myosin ATPase, Porcine Atria myofibrils, sample O=C(Cn1c(=O)[nH]c2ccccc2c1=O)NCc1ccc(F)cc1F [Compound 5009] , Porcine Atria EC25 (Y75 value) read: 100

Assay myosin ATPase, Porcine Atria myofibrils, sample C[C@H](NC(=O)[C@@H](C)n1c(=O)[nH]c2ccc(F)cc2c1=O)c1ccc(F)cc1F [Compound 41] , Porcine Atria EC25 (Y75 value) read: 1.375

###

Would you kindly list Rabbit Psoas EC25 (Y75 value) for each of these compounds?
- Tested on: myosin ATPase, Rabbit Psoas myofibrils
- ASSAY_NAME: Myofibril ATPase assay, rabbit psoas (skeletal) myofibrils
- Type: biochemical
- CONDITION_INFO: concentration required to reduce myosin ATP-ase activity by 25%; Rabbit Psoas Prep pCa 25 GEOM_MEAN
Note: unit µM is implicit; provide only the numeric part.

Memo: C[C@@H](NC(=O)Cn1c(=O)[nH]c2ccc(F)c(F)c2c1=O)c1ncc(C#N)cc1F (single isomer, unassigned) , reported Rabbit Psoas EC25 (Y75 value): 1.66

Memo: CC(C)[C@H](N)C(=O)OCn1c(=O)n(CC(=O)N[C@@H](C)c2ccc(F)cc2F)c(=O)c2cc(F)ccc21 , reported Rabbit Psoas EC25 (Y75 value): 6.978

Memo: O=C(Cn1c(=O)[nH]c2ccccc2c1=O)NCc1ccncc1 , reported Rabbit Psoas EC25 (Y75 value): 100

Memo: CC(NC(=O)Cn1c(=O)[nH]c2ccccc2c1=O)c1ccc(F)cc1F (stereo not shown) , reported Rabbit Psoas EC25 (Y75 value): 0.494

Memo: C[C@@H](NC(=O)Cn1c(=O)[nH]c2ccc(C#N)cc2c1=O)c1ncc(C#N)cc1F (single isomer, unassigned) , reported Rabbit Psoas EC25 (Y75 value): 100

Memo: C[C@H](NC(=O)Cn1c(=O)[nH]c2ccc(F)c(F)c2c1=O)c1ccc(C#N)nn1 (single isomer, unassigned) , reported Rabbit Psoas EC25 (Y75 value): 0.204

Memo: C[C@H](NC(=O)Cn1c(=O)[nH]c2ccnc(O)c2c1=O)c1ccc(F)cc1F , reported Rabbit Psoas EC25 (Y75 value): 100

Memo: C[C@@H](NC(=O)Cn1c(=O)[nH]c2ccccc2c1=O)c1ccc(Cl)cc1 (single isomer, unassigned) , reported Rabbit Psoas EC25 (Y75 value): 100

Memo: C[C@@H](NC(=O)Cn1c(=O)[nH]c2ccccc2c1=O)c1ccccc1 (single isomer, unassigned) , reported Rabbit Psoas EC25 (Y75 value): 100

Memo: C[C@H](NC(=O)[C@H](C)n1c(=O)[nH]c2ccc(F)cc2c1=O)c1ccc(F)cc1F , reported Rabbit Psoas EC25 (Y75 value): 0.476

Memo: CC(NC(=O)Cn1c(=O)[nH]c2ccccc2c1=O)c1ccccc1Br (stereo not shown) , reported Rabbit Psoas EC25 (Y75 value): 11.968

Memo: O=C(Cn1c(=O)[nH]c2ccccc2c1=O)NCc1ccc(F)cc1F , reported Rabbit Psoas EC25 (Y75 value): 100

Memo: CC(NC(=O)Cn1c(=O)[nH]c2ccccc2c1=O)C1CCCCC1 (stereo not shown) , reported Rabbit Psoas EC25 (Y75 value): 100

Memo: CC(NC(=O)Cn1c(=O)[nH]c2ccccc2c1=O)c1cccc(F)c1 (stereo not shown) , reported Rabbit Psoas EC25 (Y75 value): 100

Memo: O=C(Cn1c(=O)[nH]c2ccccc2c1=O)NCCc1ccccc1Cl , reported Rabbit Psoas EC25 (Y75 value): 100

Memo: COc1nccc2[nH]c(=O)n(CC(=O)N[C@@H](C)c3ccc(F)cc3F)c(=O)c12 , reported Rabbit Psoas EC25 (Y75 value): 8.499
